PROCEDURE_DETAILS: Stability of multivitamin soft capsules in container with channel former and absorbent embedded in the inside walls, 30° C./65% RH
Type: physicochemical
SETTINGS: Multivitamin soft capsule batch GD 06 0045, 6 months
REPORTED_ENDPOINT: amount of active compound present, % of start (%)
Give the quantity in %, number only.

Provide measured amount of active compound present, % of start value, entry: CC(C)(CO)[C@@H](O)C(=O)NCCC(=O)[O-].CC(C)(CO)[C@@H](O)C(=O)NCCC(=O)[O-].[Ca+2] [Calcium panthotenate]
96

For the compound O=C(O)CCCC[C@@H]1SC[C@@H]2NC(=O)N[C@@H]21 [Biotin] , report amount of active compound present, % of start.
105

Return the recorded amount of active compound present, % of start value; entry: Cc1cc2nc3c(=O)[nH]c(=O)nc-3n(C[C@H](O)[C@H](O)[C@H](O)CO)c2cc1C [Riboflavin]
107

Given the compound CC1=C(/C=C/C(C)=C/C=C/C(C)=C/C=C/C=C(C)/C=C/C=C(C)/C=C/C2=C(C)CCCC2(C)C)C(C)(C)CCC1 [β-Carotene] , write its reported amount of active compound present, % of start.
87

Give the reported value of amount of active compound present, % of start for this record: NC(=O)c1cccnc1 [Nicotinamide]
98

Indicate the recorded amount of active compound present, % of start value for this compound: Nc1nc2ncc(CNc3ccc(C(=O)N[C@@H](CCC(=O)O)C(=O)O)cc3)nc2c(=O)[nH]1 [Folic acid]
104

Answer with reported amount of active compound present, % of start of CC(=O)Oc1c(C)c(C)c2c(c1C)CCC(C)(CCC[C@H](C)CCC[C@H](C)CCCC(C)C)O2 (stereo partly drawn) [Tocopherol acetate]
99

Answer with the recorded amount of active compound present, % of start of O=C1O[C@H]([C@@H](O)CO)C(O)=C1O [Ascorbic acid] only.
95

Retrieve amount of active compound present, % of start measured for Cc1ncc(CO)c(CO)c1O.Cl [Pyridoxine*HCL] and print it.
94
